Where do the numbers come from? From PubChem BioAssay (NCI).

# test name: NCI Yeast Anticancer Drug Screen. Data for the bub3 strain (AID 167)
# assay setup: S. cerevisiae bub3 mutant strain, at 50.0 µM
Compounds without any hit were thinned out: in the full panel of roughly 79,000, 15% have a hit. Active and inactive are the calls of the source. No stated cut-off is given here; in the data, active means growth inhibition above about 70%; inactive means the rest.
Choose the fitting class; nothing outside active, inactive is accepted.

compound	assigned category
CCc1cccc(C(C)(C)C)c1NC(=S)N/C=C(/C#N)C(N)=O	inactive
Cc1ccc(S(=O)(=O)N/N=C(\C(=O)Nc2cccc([N+](=O)[O-])c2)c2nc3ccc([N+](=O)[O-])cc3[nH]c2=O)cc1	inactive
CC(O)C1OC(n2cnc3c(=S)nc[nH]c32)C(O)C1O (stereo unspecified)	inactive
O=C(CN1CCOCC1)NC(=O)c1ccccc1	inactive
Cn1cnc([N+](=O)[O-])c1Sc1n[nH]c(-c2ccc(Cl)cc2)n1	inactive

In the following, a different compound is considered.
Any idea what this test logged for COc1ccc2[nH]c3c(C)c4c(c(C)c3c2c1)CN(C)CC4 ?
inactive
